Reference for the values: a melting point compilation (Tetko et al.; mined from patent text by program, amines drawn as free bases though some values may be those of a salt)

Reported melting point is given for each of the following compounds.

• CC(C)(C)c1ocnc1C=C(O)C(=O)O = 153 to 155 °C

## Input Which melting point value is on record for COC(=O)CCc1ccc(OCCn2c(=O)sc3cc(C(=O)c4ccccc4)ccc32)cc1 ?
## Output 74 to 77 °C

## Input Which melting point value is on record for COc1cc2sc(-c3cccnc3)nc2cc1N=C=S ?
## Output 164 to 166 °C

----------
Reported melting point is given for each of the following molecules.

- COc1ccc(C2=NN(CCO)C(=O)[C@H]3CCCC[C@@H]23)cc1OC (relative stereo): 128 to 129 °C
- CC(=O)c1ccc(C=CC(=O)N2CCc3c([nH]c4ccccc34)C2c2ccc3c(c2)OCO3)cc1O (stereo not drawn): 217 to 218 °C
- NC(=O)c1cc(-c2ccnc(Nc3cccc(Cl)c3)n2)ccn1: 245 to 247 °C
- CN1CCC(OC2c3cccc(-c4ccc(F)cc4)c3CCn3cc(-c4ccccc4)nc32)CC1 (stereo not drawn): 95 °C

## Input Which melting point value is on record for CSCCN1CSC(=Cc2cc(C(C)(C)C)c(O)c(C(C)(C)C)c2)C1=O ?
## Output 166 to 168 °C

## Input Which melting point value is on record for CC(=O)OC1(C(C)=O)CCC2C3CCC4=CC(=O)CCC4(C)C3(Br)C(F)CC21C (stereo not drawn) ?
## Output 180 to 182 °C

## Input Which melting point value is on record for COc1ccc(-c2sc3cc(OC)ccc3c2C(=O)c2ccc(Br)cc2)cc1 ?
## Output 127 to 129 °C

## Input Which melting point value is on record for CCCCCCCC(=O)N(C)Cc1cc(-c2ccc(C=CC(=O)O)cc2)cs1 ?
## Output 175 °C

## Input Which melting point value is on record for O=C(Nc1ccccc1N1CCc2ccccc21)c1ccncc1 ?
## Output 120 to 121 °C

## Input Which melting point value is on record for C#Cc1ccc(-c2[nH]c(=O)c3cc(OC)ccc3c2[N+](=O)[O-])cc1 ?
## Output 246 to 248 °C

## Input Which melting point value is on record for CCP(CC)c1ccc(Cl)cc1 ?
## Output 77 to 79 °C

## Input Which melting point value is on record for CCCn1cc2c(C3C(=O)Nc4ccc(Br)cc43)nc(NCCN3CCOCC3)nc2n1 (stereo not drawn) ?
## Output 299 to 303 °C

## Input Which melting point value is on record for c1ccc(CCN2CCN(c3n[nH]c4c3CCCc3ccccc3-4)CC2)cc1 ?
## Output 147 to 148 °C
